- EXPERIMENTAL_DETAILS: Cytotoxicity against human HepG2 cells assessed as cell viability at 80 uM incubated for 24 hrs by CCK8 assay relative to control
- Format: toxicity, cell-based
- PARTICULARS: HepG2 cells, read-out: Activity
For each of the compounds below, state its viability at 24 h, 80 µM.

Can you look up the measured viability at 24 h, 80 µM of `C[C@H]1[C@H](C)CC[C@]2(C(=O)NCC(=O)O)CC[C@]3(C)C(=CC[C@@H]4[C@@]5(C)C[C@@H](O)[C@H](O)C(C)(C)[C@@H]5CC[C@]43C)[C@H]12` for me? > 80%

Same again, this time with `CCOC(=O)[C@H](C)NC(=O)[C@]12CC[C@@H](C)[C@H](C)[C@H]1C1=CC[C@@H]3[C@@]4(C)C[C@@H](O)[C@H](O)C(C)(C)[C@@H]4CC[C@@]3(C)[C@]1(C)CC2` > 80%

Same again, this time with `CCOC(=O)[C@H](CO)NC(=O)[C@]12CC[C@@H](C)[C@H](C)[C@H]1C1=CC[C@@H]3[C@@]4(C)C[C@@H](O)[C@H](O)C(C)(C)[C@@H]4CC[C@@]3(C)[C@]1(C)CC2` > 80%

Same again, this time with `CCOC(=O)[C@H](CC(C)C)NC(=O)[C@]12CC[C@@H](C)[C@H](C)[C@H]1C1=CC[C@@H]3[C@@]4(C)C[C@@H](O)[C@H](O)C(C)(C)[C@@H]4CC[C@@]3(C)[C@]1(C)CC2` > 80%
